System: MDA-MB-435
Classes used: T for active, F for inactive

[
  {
    "COMPOUND": "Nc1nc(N)c2c(n1)NC(c1ccccc1)CC(c1ccc(Nc3nc(NCCO)nc(Nc4ccc(Cl)cc4)n3)cc1)=N2 (centres undefined)",
    "CATEGORY LABEL": "F"
  },
  {
    "COMPOUND": "CN1CCC(n2cc(Nc3ncc4c(=O)n(-c5c(Cl)cccc5Cl)cc(Br)c4n3)cn2)CC1",
    "CATEGORY LABEL": "T"
  },
  {
    "COMPOUND": "COc1ccc(/C=N/NC2=NC3C(S2)N(C)C(=O)N3C)cc1 (centres undefined)",
    "CATEGORY LABEL": "F"
  },
  {
    "COMPOUND": "CS(=O)(=O)c1nccc(-c2c(-c3cccc(OCc4ccc(Cl)c(C(F)(F)F)c4)c3)nc3sccn23)n1",
    "CATEGORY LABEL": "F"
  }
]

====

# Lookup of reported GI50 keyed by entry
Test system: HCT-116 colon
PROTOCOL NOTES: NCI tumour cell line growth inhibition, 48 h

[
  {
    "MOLECULE": "COc1ccc(/C=N/NC2=NC3C(S2)N(C)C(=O)N3C)cc1 (centres undefined)",
    "GI50": "4.67 µM"
  },
  {
    "MOLECULE": "CS(=O)(=O)c1nccc(-c2c(-c3cccc(OCc4ccc(Cl)c(C(F)(F)F)c4)c3)nc3sccn23)n1",
    "GI50": "6.53 µM"
  },
  {
    "MOLECULE": "CN1CCC(n2cc(Nc3ncc4c(=O)n(-c5c(Cl)cccc5Cl)cc(Br)c4n3)cn2)CC1",
    "GI50": "0.585 µM"
  },
  {
    "MOLECULE": "Nc1nc(N)c2c(n1)NC(c1ccccc1)CC(c1ccc(Nc3nc(NCCO)nc(Nc4ccc(Cl)cc4)n3)cc1)=N2 (centres undefined)",
    "GI50": "1.51 µM"
  }
]

====

Tested on: 786-0 renal
PROTOCOL NOTES: NCI tumour cell line growth inhibition, 48 h

[
  {
    "COMPOUND": "CN1CCC(n2cc(Nc3ncc4c(=O)n(-c5c(Cl)cccc5Cl)cc(Br)c4n3)cn2)CC1",
    "UNIT ANNOTATION": "µM",
    "RELATION": "=",
    "TGI": 8.32
  },
  {
    "COMPOUND": "CS(=O)(=O)c1nccc(-c2c(-c3cccc(OCc4ccc(Cl)c(C(F)(F)F)c4)c3)nc3sccn23)n1",
    "UNIT ANNOTATION": "µM",
    "RELATION": "=",
    "TGI": 15.3
  },
  {
    "COMPOUND": "COc1ccc(/C=N/NC2=NC3C(S2)N(C)C(=O)N3C)cc1 (centres undefined)",
    "UNIT ANNOTATION": "µM",
    "RELATION": ">",
    "TGI": 100
  },
  {
    "COMPOUND": "Cc1ccc2c(n1)C(=O)C(Cl)=C(Nc1ccc(C(C)C)cc1)C2=O",
    "UNIT ANNOTATION": "µM",
    "RELATION": "=",
    "TGI": 4.5
  }
]
